TESTED_TARGET: T1, PSMA (Homo sapiens, UniProt Q04609)
T1 construct: purified extracellular domain of PSMA [residues 44-750; purchased from Caltech Protein Expression Center, CA]; purchased Caltech Protein Expression Center, CA
T1 sequence (Q04609 44-750): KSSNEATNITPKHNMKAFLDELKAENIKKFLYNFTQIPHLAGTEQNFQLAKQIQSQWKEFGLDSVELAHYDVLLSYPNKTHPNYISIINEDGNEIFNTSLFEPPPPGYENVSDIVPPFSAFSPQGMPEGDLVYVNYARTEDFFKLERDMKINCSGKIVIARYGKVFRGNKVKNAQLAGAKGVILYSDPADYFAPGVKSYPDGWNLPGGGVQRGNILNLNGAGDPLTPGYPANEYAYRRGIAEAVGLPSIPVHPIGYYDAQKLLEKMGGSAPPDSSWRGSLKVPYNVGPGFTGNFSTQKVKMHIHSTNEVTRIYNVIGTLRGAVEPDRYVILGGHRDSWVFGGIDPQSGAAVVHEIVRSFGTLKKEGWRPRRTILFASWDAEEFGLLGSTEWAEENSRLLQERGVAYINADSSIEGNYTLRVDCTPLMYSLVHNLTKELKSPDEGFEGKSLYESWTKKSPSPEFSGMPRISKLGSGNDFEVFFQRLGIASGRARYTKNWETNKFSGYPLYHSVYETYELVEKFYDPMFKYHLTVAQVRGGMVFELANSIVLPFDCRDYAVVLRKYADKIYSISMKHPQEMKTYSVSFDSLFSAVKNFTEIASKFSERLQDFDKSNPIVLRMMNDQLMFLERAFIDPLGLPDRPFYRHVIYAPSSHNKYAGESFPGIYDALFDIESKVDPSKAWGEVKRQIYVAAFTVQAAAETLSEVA
METHOD_NOTES: Small-angle X-ray scattering of PSMA-NB complexes
CONDITION_SET: PSMA + NB, method Guinier

MOLECULE | Rg / Å
NB8: anti-PSMA camel nanobody (VHH, ~16 kDa) selected by phage display; PDB 6XXO (protein) VHH: QVQLQESGGGSVQAGGSLRLSCARSGWPYSTYSMNWFRQAPGKEREAVAGISSTMSGIIFAESKAGQFTISQDNAKNTVYLQMNNLKPEDTAIYYCAARRDYSLSSSSDDFDYWGQGTQVTVSSAAAYPYDVPDYGS | 40.5
NB7: anti-PSMA camel nanobody (VHH, ~16 kDa) selected by phage display; PDB 6XXN (protein) VHH: QVQLQESGGGSVQAGGSLRLSCTAPGYTDSNYYMSWFRQAPGKEREWVAGVNTGRGSTSYADSVKGRFTISQDNAKNTMFLQMNSLKPEDTAIYYCAVAACHFCDSLPKTQDEYILWGQGTQVTVSSAAAYPYDVPDYGS | 48.2
NB13: anti-PSMA camel nanobody (VHH, ~16 kDa) selected by phage display (protein) VHH: QVQLQESGGGSVQTGGSLRLSCAASGYTASFSWIGYFRQAPGKEREGVAVINVGVGSTYYADSVKGRFTISRDNTENTISLEMNSLKPEDTGLYYCAGSLRWSRPPNPISEDAYNYWGQGTQVTVSSAAAYPYDVPDYGS | 43.8
NB37: anti-PSMA camel nanobody (VHH, ~16 kDa) selected by phage display; PDB 6XXP (protein) VHH: QVQLQESGGGSVEAGGSLRLSCARSGWPYSTYSMNWFRQAPGKEREAVAGISSTMSGIIFAESKAGQFTISQDNAKNTVYLQMNNLKPEDTAIYYCAARRDYSLSSSSDDFDYWGQGTQVTVSSAAAYPYDVPDYGS | 40.4
